- Test system: pentagastrin-stimulated acid secretion
- Method Description: inhibition of pentagastrin-stimulated acid secretion in dogs with gastric fistula and Heidenhain pouch
- Assay type: in vivo, dog (beagle)
- Condition Description: GF (gastric fistula); analogue 20 pmol.kg^-1.h^-1; period 110-170 minutes
Non-standard residues stand in square brackets, D forms with d. Residues, ends and D or L forms follow the SMILES beside them. *: point of attachment. Boc = CC(C)(C)OC(=O)*; βAla = NCCC(=O)O
Please respond with reported ACID INHIBITION for every item in the list.
One number for each entry, in mmol H^+ /kg.

# annotated cases, reported ACID INHIBITION shown
> print(dat)
                                   compound     readout.kind  experimental.value
1  CC(C)C[C@H](NC(=O)CCc1ccccc1)C(=O)N(C)CCC(=O)O [Peptide XV]  ACID INHIBITION              185.32
2  CC(C)C[C@H](NC(=O)CCc1ccccc1)C(=O)NCCC(=O)O [Peptide II, Phenyl-3-Propionyl-Leucyl-β-Alanine]  ACID INHIBITION              562.22
3  CC(C)C[C@H](NC(=O)[C@H](Cc1c[nH]c2ccccc12)NC(=O)OC(C)(C)C)C(=O)NCCC(=O)O [Peptide I] (Boc-Trp-Leu-[βAla]-OH)  ACID INHIBITION              617.58

Please find the next compound below.
For the compound shown here, CC(C)C[C@@H](C(=O)NCCC(=O)O)N(C)C(=O)CCc1ccccc1 [Peptide XIV] , give the reported ACID INHIBITION.
256.77
